test: Anticancer human tumor 997537-175-T-J1-PDC patient-derived colon adenocarcinoma cell line growth inhibition [POLQ]; details: 997537-175-T-J1-PDC complex spheroid viability, combination with POLQ inhibitors; second compound 0.1 µM; first compound 0.1 µM; stronger effect = lower value
measurementType: viability, T/C

CC1COCCN1c1cc(-c2ccnn2C)c2ccnc(-c3ccn[nH]3)c2n1 (centres undefined) + Nc1ccc(C#CCN(C(=O)Cc2ncc(C(F)(F)F)cc2C(F)(F)F)c2ccc(F)cc2)nn1 ... 92.2%
CC[C@@]1(O)C(=O)OCc2c1cc1n(c2=O)Cc2cc3c(CN(C)C)c(O)ccc3nc2-1 + COC1C(OC(N)=O)C(O)C(Oc2ccc3c(O)c(NC(=O)c4ccc(O)c(CC=C(C)C)c4)c(=O)oc3c2C)OC1(C)C ... 68.6%
CC1COCCN1c1cc(C2(S(C)(=N)=O)CC2)nc(-c2ccnc3[nH]ccc23)n1 (centres undefined) + Nc1ccc(C#CCN(C(=O)Cc2ncc(C(F)(F)F)cc2C(F)(F)F)c2ccc(F)cc2)nn1 ... 105%

Now for a further compound.
Lookup result for CCCS(=O)(=O)Nc1ccc(F)c(C(=O)c2c[nH]c3ncc(-c4ccc(Cl)cc4)cc23)c1F + Nc1ccc(C#CCN(C(=O)Cc2ncc(C(F)(F)F)cc2C(F)(F)F)c2ccc(F)cc2)nn1 ; measured viability, T/C: 86.5%

* * *

experiment: Anticancer human tumor 997537-175-T-J1-PDC cell line growth inhibition [POLQ]; details: 997537-175-T-J1-PDC complex spheroid viability, combination with POLQ inhibitors; second compound 1 µM; first compound 0.316 µM; stronger effect = lower value;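 note: luminescence signal used as a surrogate for viable cells; spheroids exposed to drugs for seven days before readout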
measurementType: viability, T/C (%)
The figure you give is taken to be in %; do not add the unit.

Worked cases, viability, T/C given:
O=c1[nH]cc(F)c(=O)[nH]1 + Cc1cccc(N(C)C(=O)C2C(O)CCN2c2nc(C)cc(C(F)(F)F)c2C#N)c1 ... 94.7
CC1COCCN1c1cc(C2(O)CC3CCC(C2)O3)c2cnn(-c3ccn[nH]3)c2n1 (centres undefined) + COC1C(OC(N)=O)C(O)C(Oc2ccc3c(O)c(NC(=O)c4ccc(O)c(CC=C(C)C)c4)c(=O)oc3c2C)OC1(C)C ... 59.5
CC1COCCN1c1cc(C2(S(C)(=N)=O)CC2)nc(-c2ccnc3[nH]ccc23)n1 (centres undefined) + Nc1ccc(C#CCN(C(=O)Cc2ncc(C(F)(F)F)cc2C(F)(F)F)c2ccc(F)cc2)nn1 ... 105

Now for a further compound.
Lookup result for COc1ccc([C@@H](O)c2cc(-c3ncnc4cc(N5CCOCC5)ccc34)c(F)cc2Cl)nn1 + COC1C(OC(N)=O)C(O)C(Oc2ccc3c(O)c(NC(=O)c4ccc(O)c(CC=C(C)C)c4)c(=O)oc3c2C)OC1(C)C ; measured viability, T/C: 109

* * *

Here the recorded viability, T/C is given for each entry.
assay: Anticancer human tumor 997537-175-T-J1-PDC cell line growth inhibition [POLQ]; details: 997537-175-T-J1-PDC complex spheroid viability, combination with POLQ inhibitors; second compound 0.316 µM; first compound 10 µM; stronger effect = lower value;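 note: luminescence signal used as a surrogate for viable cells; spheroids exposed to drugs for seven days before readout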
The figure you give is taken to be in %; do not add the unit.

C=CC(=O)N1CCN(c2nc(=O)n(-c3c(C)ccnc3C(C)C)c3nc(-c4c(O)cccc4F)c(F)cc23)C(C)C1 (stereo not given) + Nc1ccc(C#CCN(C(=O)Cc2ncc(C(F)(F)F)cc2C(F)(F)F)c2ccc(F)cc2)nn1 ... 94
C#Cc1c(F)ccc2cc(O)cc(-c3ncc4c(N5CC6CCC(C5)N6)nc(OCC56CCCN5CC(F)C6)nc4c3F)c12 (stereo not given) + Nc1ccc(C#CCN(C(=O)Cc2ncc(C(F)(F)F)cc2C(F)(F)F)c2ccc(F)cc2)nn1 ... 110

Lookup result for CC(C)n1c(=O)n(C)c2cnc3cc(F)c(-c4ccc(OCCCN5CCCCC5)nc4)cc3c21 + Cc1cccc(N(C)C(=O)C2C(O)CCN2c2nc(C)cc(C(F)(F)F)c2C#N)c1 ; measured viability, T/C: 87.7

Lookup result for C=CC(=O)N1CCN(c2nc(=O)n(-c3c(C)ccnc3C(C)C)c3nc(-c4c(O)cccc4F)c(F)cc23)C(C)C1 (stereo not given) + COC1C(OC(N)=O)C(O)C(Oc2ccc3c(O)c(NC(=O)c4ccc(O)c(CC=C(C)C)c4)c(=O)oc3c2C)OC1(C)C ; measured viability, T/C: 93.8

Lookup result for O=c1[nH]cc(F)c(=O)[nH]1 + Nc1ccc(C#CCN(C(=O)Cc2ncc(C(F)(F)F)cc2C(F)(F)F)c2ccc(F)cc2)nn1 ; measured viability, T/C: 94.1

* * *

Here the recorded viability, T/C is given for each entry.
test: Anticancer human tumor 997537-175-T-J1-PDC cell line growth inhibition [POLQ]; settings: 997537-175-T-J1-PDC complex spheroid viability, combination with POLQ inhibitors; second compound 1 µM; first compound 10 µM; stronger effect = lower value;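 note: luminescence signal used as a surrogate for viable cells; spheroids exposed to drugs for seven days before readout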
The figure you give is taken to be in %; do not add the unit.

Worked cases, viability, T/C given:
CCCS(=O)(=O)Nc1ccc(F)c(C(=O)c2c[nH]c3ncc(-c4ccc(Cl)cc4)cc23)c1F + Cc1cccc(N(C)C(=O)C2C(O)CCN2c2nc(C)cc(C(F)(F)F)c2C#N)c1 ... 29.5
O=c1[nH]cc(F)c(=O)[nH]1 + COC1C(OC(N)=O)C(O)C(Oc2ccc3c(O)c(NC(=O)c4ccc(O)c(CC=C(C)C)c4)c(=O)oc3c2C)OC1(C)C ... 87.5
COc1cc2cc(C(=O)CCC(=O)O)sc2cc1OC + Cc1cccc(N(C)C(=O)C2C(O)CCN2c2nc(C)cc(C(F)(F)F)c2C#N)c1 ... 92.8
O=c1[nH]cc(F)c(=O)[nH]1 + Cc1cccc(N(C)C(=O)C2C(O)CCN2c2nc(C)cc(C(F)(F)F)c2C#N)c1 ... 91.5

Lookup result for O=C(c1cc(Cc2n[nH]c(=O)c3ccccc23)ccc1F)N1CCN(C(=O)C2CC2)CC1 + Cc1cccc(N(C)C(=O)C2C(O)CCN2c2nc(C)cc(C(F)(F)F)c2C#N)c1 ; measured viability, T/C: 87.5

Lookup result for CC(C)n1c(=O)n(C)c2cnc3cc(F)c(-c4ccc(OCCCN5CCCCC5)nc4)cc3c21 + Cc1cccc(N(C)C(=O)C2C(O)CCN2c2nc(C)cc(C(F)(F)F)c2C#N)c1 ; measured viability, T/C: 91.2

Lookup result for CCc1cc2c(N3CCc4c(cc(Cn5ccnc5)cc4-c4cn(C)nc4C(F)(F)F)C3=O)cc(C)nc2c(OC)n1 + Nc1ccc(C#CCN(C(=O)Cc2ncc(C(F)(F)F)cc2C(F)(F)F)c2ccc(F)cc2)nn1 ; measured viability, T/C: 51

Lookup result for C#Cc1c(F)ccc2cc(O)cc(-c3ncc4c(N5CC6CCC(C5)N6)nc(OCC56CCCN5CC(F)C6)nc4c3F)c12 (stereo not given) + COC1C(OC(N)=O)C(O)C(Oc2ccc3c(O)c(NC(=O)c4ccc(O)c(CC=C(C)C)c4)c(=O)oc3c2C)OC1(C)C ; measured viability, T/C: 97.9

Lookup result for CC1COCCN1c1cc(-c2ccnn2C)c2ccnc(-c3ccn[nH]3)c2n1 (stereo not given) + COC1C(OC(N)=O)C(O)C(Oc2ccc3c(O)c(NC(=O)c4ccc(O)c(CC=C(C)C)c4)c(=O)oc3c2C)OC1(C)C ; measured viability, T/C: 56.1

Lookup result for C#Cc1c(F)ccc2cc(O)cc(-c3ncc4c(N5CC6CCC(C5)N6)nc(OCC56CCCN5CC(F)C6)nc4c3F)c12 (stereo not given) + Nc1ccc(C#CCN(C(=O)Cc2ncc(C(F)(F)F)cc2C(F)(F)F)c2ccc(F)cc2)nn1 ; measured viability, T/C: 98.1

* * *

assay: Anticancer human tumor 997537-175-T-J1-PDC cell line growth inhibition [POLQ]; conditions: 997537-175-T-J1-PDC complex spheroid viability, combination with POLQ inhibitors; curve of first compound; second compound 3.16 µM;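 note: luminescence signal used as a surrogate for viable cells; spheroids exposed to drugs for seven days before readout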
pIC50: −log10 of the molar value.
Here the recorded pIC50 is given for each entry.

Worked cases, pIC50 given:
CC1COCCN1c1cc(C2(S(C)(=N)=O)CC2)nc(-c2ccnc3[nH]ccc23)n1 (stereo unspecified) + Cc1cccc(N(C)C(=O)C2C(O)CCN2c2nc(C)cc(C(F)(F)F)c2C#N)c1 ... < 5.00
C=CCn1c(=O)c2cnc(Nc3ccc(N4CCN(C)CC4)cc3)nc2n1-c1cccc(C(C)(C)O)n1 + Nc1ccc(C#CCN(C(=O)Cc2ncc(C(F)(F)F)cc2C(F)(F)F)c2ccc(F)cc2)nn1 ... < 6.00
COc1cc(C2c3cc4c(cc3C(OC3OC5COC(C)OC5C(O)C3O)C3COC(=O)C23)OCO4)cc(OC)c1O (stereo unspecified) + Cc1cccc(N(C)C(=O)C2C(O)CCN2c2nc(C)cc(C(F)(F)F)c2C#N)c1 ... < 5.00
C=CC(=O)N1CCN(c2nc(=O)n(-c3c(C)ccnc3C(C)C)c3nc(-c4c(O)cccc4F)c(F)cc23)C(C)C1 (stereo unspecified) + COC1C(OC(N)=O)C(O)C(Oc2ccc3c(O)c(NC(=O)c4ccc(O)c(CC=C(C)C)c4)c(=O)oc3c2C)OC1(C)C ... < 5.00
O=c1[nH]cc(F)c(=O)[nH]1 + COC1C(OC(N)=O)C(O)C(Oc2ccc3c(O)c(NC(=O)c4ccc(O)c(CC=C(C)C)c4)c(=O)oc3c2C)OC1(C)C ... < 5.00
O=c1[nH]cc(F)c(=O)[nH]1 + Cc1cccc(N(C)C(=O)C2C(O)CCN2c2nc(C)cc(C(F)(F)F)c2C#N)c1 ... < 5.00
Cn1ncnc1[C@H]1c2n[nH]c(=O)c3cc(F)cc(c23)N[C@@H]1c1ccc(F)cc1 + Cc1cccc(N(C)C(=O)C2C(O)CCN2c2nc(C)cc(C(F)(F)F)c2C#N)c1 ... < 7.00
CCc1cc2c(N3CCc4c(cc(Cn5ccnc5)cc4-c4cn(C)nc4C(F)(F)F)C3=O)cc(C)nc2c(OC)n1 + Cc1cccc(N(C)C(=O)C2C(O)CCN2c2nc(C)cc(C(F)(F)F)c2C#N)c1 ... < 5.00

Lookup result for CCc1cc2c(N3CCc4c(cc(Cn5ccnc5)cc4-c4cn(C)nc4C(F)(F)F)C3=O)cc(C)nc2c(OC)n1 + Nc1ccc(C#CCN(C(=O)Cc2ncc(C(F)(F)F)cc2C(F)(F)F)c2ccc(F)cc2)nn1 ; measured pIC50: < 5.00

Lookup result for COc1cccc(OCCCN)c1-c1cc(Nc2cnc(C#N)cn2)n[nH]1 + COC1C(OC(N)=O)C(O)C(Oc2ccc3c(O)c(NC(=O)c4ccc(O)c(CC=C(C)C)c4)c(=O)oc3c2C)OC1(C)C ; measured pIC50: 7.24

Lookup result for CCc1cc2c(N3CCc4c(cc(Cn5ccnc5)cc4-c4cn(C)nc4C(F)(F)F)C3=O)cc(C)nc2c(OC)n1 + COC1C(OC(N)=O)C(O)C(Oc2ccc3c(O)c(NC(=O)c4ccc(O)c(CC=C(C)C)c4)c(=O)oc3c2C)OC1(C)C ; measured pIC50: < 5.00
